assay-summary: NCI Yeast Anticancer Drug Screen. Data for the cln2 rad14 strain (AID 165);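 also: 0% = growth equal to vehicle treated cultures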
condition-info: S. cerevisiae cln2 rad14 strain, at 50.0 µM, stronger effect = higher value
The panel holds about 79,000 compounds, 15% with a hit somewhere; the sample as a whole holds those more often.
Items are presented alongside their recorded growth inhibition.
Numeric only. Scale: %

Guide cases for growth inhibition, answers given:
compound	growth inhibition, %
Oc1c(Cl)cc(Cl)c(Cc2c(Cl)cc(Cl)c(O)c2Cl)c1Cl	19.5
Oc1c2c(c(O)c3ncccc13)C1C=CC2CC1 (stereo unspecified)	84.8
CCn1c(O)c(C=Nc2ccccc2)s/c1=N/Nc1nc(-c2ccc(O)c(O)c2)cs1	41.5

Record summary for `N#CC(=C1C=CC(=NO)C=C1)c1cccc2ccccc12` : reported growth inhibition = 90.2

Record summary for `CCCCc1ccc(Nc2nc(N)c3[nH]cnc3n2)cc1` : reported growth inhibition = 16.7

Record summary for CC(c1ccccc1C(=O)O)c1cccc2ccccc12 (stereo unspecified) : reported growth inhibition = 97.5

Reference source: PubChem BioAssay (NCI)
